Biological target: recombinant SARS-CoV-2 Main protease (Mpro) (Severe acute respiratory syndrome coronavirus 2 (2019-nCoV) (SARS-CoV-2))
Experiment: Cov Mpro Biochemical IC50 Assay
Conditions: recombinant SARS-CoV-2 Mpro 7.5 nM, fluorogenic peptide substrate 40 μM; read-out: MPro IC50
Measured parameter: IC50

| Molecule | Value reported |
| --- | --- |
| COc1ccc(Cl)c(-c2cc3[nH]c(=O)n(-c4cncc5ccc(F)cc45)c(=O)c3s2)c1 | 11.5 nM |
| COc1ccc2cncc(-n3c(=O)[nH]c4cc(-c5c(Cl)cccc5C5=CCOCC5)sc4c3=O)c2c1 | 6.96 nM |
| COc1cc(-c2cc3[nH]c(=O)n(-c4cncc5ccccc45)c(=O)c3s2)c(C#N)cn1 | 249 nM |
| CN(CCO)c1ccc2cncc(-n3c(=O)[nH]c4cc(-c5ccccc5Cl)sc4c3=O)c2c1 | 6.49 nM |
| COc1cc(-c2cc3[nH]c(=O)n(-c4cncc5ccccc45)c(=O)c3cc2OC)c(Cl)cc1F [Example 672] | 37.8 nM |
| COc1cc(-c2cc3c(s2)c(=O)n(-c2cncc(CO)c2)c(=O)n3CCC#N)c(C#N)cc1F | 4.12 nM |
| Cn1ncc2c(-c3cc4[nH]c(=O)n(-c5cncc6cnn(C)c56)c(=O)c4s3)c(Cl)ccc21 | 146 nM |
| COc1cc(-c2cc3c(s2)c(=O)n(-c2cncc4cccc(F)c24)c(=O)n3CC#N)c(Cl)cc1F | 3.58 nM |

Lab note: COc1cnc(Cl)c(-c2cc3[nH]c(=O)n(-c4cncc5ccccc45)c(=O)c3s2)c1 (single isomer, unassigned) [Example 628] gave IC50 of 3.26 nM

Lab note: COc1cc(-c2cc3c(s2)c(=O)n(-c2cncc(F)c2)c(=O)n3CCC#N)c(Cl)cc1F gave IC50 of 2.37 nM

Lab note: COc1ccc(C#N)c(-c2cc3[nH]c(=O)n(-c4cncc5ccsc45)c(=O)c3s2)c1 gave IC50 of < 2.54 nM

Lab note: COc1cc(-c2cc3c(s2)c(=O)n(-c2cncc4nnn(C)c24)c(=O)n3CCC#N)c(C#N)cc1F gave IC50 of 15.8 nM

Lab note: N#Cc1cc(F)ccc1-c1cc2[nH]c(=O)n(-c3cncc4ccccc34)c(=O)c2s1 gave IC50 of 30.6 nM

Lab note: COc1cc(-c2cc3c(s2)c(=O)n(-c2cncc4cnn(C5CC5)c24)c(=O)n3CCC#N)c(Cl)cc1F gave IC50 of 8.93 nM
